biological target: Rat striatal nicotinic receptors ([3H]nicotine binding) (Rattus norvegicus, UniProt P09483+P12390); construct: Whole brain, excluding cortex and cerebellum, was homogenized; from tissue; host or cells: rat brain membranes (whole brain excluding cortex and cerebellum); assay: Inhibition of [3H]nicotine binding; conditions: % inhibition at 100 nM analog; 3 nM [3H]nicotine; nonspecific binding with 10 μM cytisine
Sequence (P09483 31-630): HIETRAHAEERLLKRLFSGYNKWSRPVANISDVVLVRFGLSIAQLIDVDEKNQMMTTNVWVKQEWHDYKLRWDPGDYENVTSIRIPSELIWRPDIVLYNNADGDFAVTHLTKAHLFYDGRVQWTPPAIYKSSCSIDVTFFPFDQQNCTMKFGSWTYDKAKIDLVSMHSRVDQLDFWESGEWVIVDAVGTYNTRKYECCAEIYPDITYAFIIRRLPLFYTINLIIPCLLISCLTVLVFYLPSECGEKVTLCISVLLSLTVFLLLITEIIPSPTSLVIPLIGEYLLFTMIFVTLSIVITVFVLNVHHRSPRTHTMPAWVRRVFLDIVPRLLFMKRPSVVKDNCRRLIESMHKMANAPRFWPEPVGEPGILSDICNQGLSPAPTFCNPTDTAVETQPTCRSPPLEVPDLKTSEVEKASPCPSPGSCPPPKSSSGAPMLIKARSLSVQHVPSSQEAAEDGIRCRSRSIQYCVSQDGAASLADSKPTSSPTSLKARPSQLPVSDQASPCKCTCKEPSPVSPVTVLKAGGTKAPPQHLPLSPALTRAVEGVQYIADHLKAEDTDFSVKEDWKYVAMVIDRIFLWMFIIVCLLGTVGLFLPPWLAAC
Sequence (P12390 25-500): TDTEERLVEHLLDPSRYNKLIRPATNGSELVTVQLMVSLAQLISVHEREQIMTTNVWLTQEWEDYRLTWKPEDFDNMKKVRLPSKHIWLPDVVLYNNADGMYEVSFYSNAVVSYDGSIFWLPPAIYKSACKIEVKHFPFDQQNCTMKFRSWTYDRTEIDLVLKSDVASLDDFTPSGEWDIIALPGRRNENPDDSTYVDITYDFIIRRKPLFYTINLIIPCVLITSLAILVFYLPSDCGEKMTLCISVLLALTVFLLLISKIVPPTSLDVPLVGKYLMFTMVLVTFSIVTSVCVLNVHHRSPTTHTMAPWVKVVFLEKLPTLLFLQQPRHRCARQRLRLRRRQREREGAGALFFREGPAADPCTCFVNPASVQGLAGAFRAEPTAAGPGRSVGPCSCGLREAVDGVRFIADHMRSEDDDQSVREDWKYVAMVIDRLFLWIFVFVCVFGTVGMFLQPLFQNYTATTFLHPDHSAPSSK
# Inhibition of [3H]Nicotine binding per entry
Numeric answer only, unit % assumed.

# CPD_SMILES, QUANTITY, MEASUREMENT_UNITS, READOUT_NUMBER
measured = [
    ("c1cc2c[n+](c1)CCCC[n+]1cccc(c1)CCCCCCCCCCCC2", "Inhibition of [3H]Nicotine binding", "%", 14),
]

Q. Write down Inhibition of [3H]Nicotine binding measured for item `C1#Cc2ccc[n+](c2)CCCCCCCC[n+]2cccc(c2)C#CCCCCCC1.[I-].[I-]`
A. 9

Q. Give a short answer stating reported Inhibition of [3H]Nicotine binding for `C1#Cc2ccc[n+](c2)CCCCCCCCC[n+]2cccc(c2)C#CCCCCCC1.[Br-].[Br-]` .
A. 0

Q. Look up and state reported Inhibition of [3H]Nicotine binding for `c1cc2c[n+](c1)CCCCCCCCCCCCc1ccc[n+](c1)CCCCCCCCCCCC2`
A. 2

Q. In one line, give reported Inhibition of [3H]Nicotine binding of the entry `C1#Cc2ccc[n+](c2)CCCCCCCCCCC[n+]2cccc(c2)C#CCCCCCC1.[Br-].[Br-]` .
A. 11

Q. Output measured Inhibition of [3H]Nicotine binding for this item: `C1#Cc2ccc[n+](c2)CCCCCC[n+]2cccc(c2)C#CCCCCCC1.[I-].[I-]`
A. 7
